The compounds listed here are annotated with their Encapsulation Efficiency.
experiment: Encapsulation efficiency of lipid nanoparticles, Quant-it Ribogreen RNA assay; assay type: physicochemical; settings: LNP of lipid/DSPC/cholesterol/PEG-lipid 50:10:38.5:1.5 encapsulating hEPO mRNA
Enter your answer as a number in %; do not include the unit.

- COMPOUND: "CCCCCCCCCCCOC(=O)CCCCCN(CCN(CCO)CCCCCC(=O)NCC(CCCCCCCC)CCCCCCCC)C1CCCCC1 [Compound 44]"
  Encapsulation Efficiency, %: 92.6
- COMPOUND: "CCCCCCCCC(CCCCCC)COC(=O)CCCCCN(CCO)CCN(CCCCCC(=O)OCC(CCCCCC)CCCCCCCC)C1CCCCCC1 (stereo not shown) [Compound 24]"
  Encapsulation Efficiency, %: 93.90
- COMPOUND: "CCCCCCCCCCCOC(=O)CCCCCN(CCN(CCO)CCCCC(COC(=O)CCCCCCC)COC(=O)CCCCCCC)C1CCC1 [Compound 182]"
  Encapsulation Efficiency, %: 91.00
- COMPOUND: "CCCCCCCCC(CCCCCCCC)COC(=O)CCCCCN(CCO)CCN(CCCCCC(=O)OCC(CCCCCCCC)CCCCCCCC)CCC(C)C [Compound 118]"
  Encapsulation Efficiency, %: 94.10

Query: For CCCCCCCCC(CCCCCCCC)COC(=O)CCOCCN(CC=C(C)C)CCN(CCO)CCOCCC(=O)OCC(CCCCCCCC)CCCCCCCC [Compound 120] , what is its reported Encapsulation Efficiency?
Result: 94.33

Query: For CCCCCCCCCCCOC(=O)CCCCCN(CCN(CCO)CCCCCC(=O)OCC(CCCCCCCC)CCCCCCCC)C1CCC1 [Compound 106] , what is its reported Encapsulation Efficiency?
Result: 92.14

Query: For CCCCCCCCCCCOC(=O)CCCCCN(CCN(CCO)CCCCCC(OCCCCCCCC)OCCCCCCCC)C1CCC1 [Compound 200] , what is its reported Encapsulation Efficiency?
Result: 92.81

---

Experiment: Lipid nanoparticle size and polydispersity by dynamic light scattering
Type: physicochemical
Details: LNP of lipid/DSPC/cholesterol/PEG-lipid 50:10:38.5:1.5 encapsulating hEPO mRNA
Protocol: Briefly, a cationic lipid provided herein, DSPC, cholesterol, and PEG-lipid were solubilized in ethanol at a molar ratio of 50:10:38.5:1.5, and mRNA were diluted in 10 to 50 mM citrate buffer, pH=4. […] Lipid nanoparticle size were determined by dynamic light scattering using a Malvern Zetasizer Nano ZS (Malvern UK) using a […] backscatter detection mode. […]
PROPERTY: polydispersity
Respond numerically, and do not add a unit to the figure.

Sample records with polydispersity:
- COMPOUND: "CCCCCCCCC(CCCCCCCC)COC(=O)CCCCCN(C)CCN(CCO)CCCCCC(=O)OCC(CCCCCCCC)CCCCCCCC [Compound 26]"
  REPORTED: 0.13
- COMPOUND: "CCCCCCCCC(CCCCCCCC)COC(=O)CCCCCN(CCN(CCO)CCOCCC(=O)OCC(CCCCCCCC)CCCCCCCC)C1CCC1 [Compound 110]"
  REPORTED: 0.042
- COMPOUND: "CCCCCCCCCCCOC(=O)CCOCCN(CCN(CCO)CCOCCC(=O)OCC(CCCCCCCC)CCCCCCCC)C1CCCCC1 [Compound 117]"
  REPORTED: 0.050
- COMPOUND: "CCCCCCCCC(CCCCCC)CNC(=O)CCCCCN(CC)CCN(CCO)CCCCC(COC(=O)CCCCCCC)COC(=O)CCCCCCC (centres unmarked) [Compound 159]"
  REPORTED: 0.080
- COMPOUND: "CCCCCCCCC(CCCCCCCC)COC(=O)CCCCCN(CCO)CCN(CCCCCOC(=O)N(CCCCCCCC)CCCCCCCC)C1CCCCC1 [Compound 127]"
  REPORTED: 0.090
- COMPOUND: "CCCCCCCCC(CCCCCC)C(=O)OCCCCCCN(CCO)CCN(CCCCCCOC(=O)C(CCCCCC)CCCCCCCC)C1CCC1 (centres unmarked) [Compound 69]"
  REPORTED: 0.096

Query: For CCCCCCCCC(CCCCCCCC)CNC(=O)CCCCCN1CCC(N(CCO)CCCCCC(=O)NCC(CCCCCCCC)CCCCCCCC)CC1 [Compound 172] , what is its reported polydispersity?
Result: 0.061

Query: For CCCCCCCCCCCOC(=O)CCCCCN(CCN(CCO)CCCCCC(=O)OCC(CCCCCCCC)CCCCCCCC)C1CC(OC)C1 (centres unmarked) [Compound 54] , what is its reported polydispersity?
Result: 0.065

Query: For CCCCCCCCC(CCCCCC)COC(=O)CCCCCN(CCO)CCN(CCCCC(COC(=O)CCCCCCC)COC(=O)CCCCCCC)C1CCCC1 (centres unmarked) [Compound 137] , what is its reported polydispersity?
Result: 0.040

Query: For CCCCCCCCC(CCCCCC)CNC(=O)CCN(CCO)CCN(CCCCC(COC(=O)CCCCCCC)COC(=O)CCCCCCC)C1CCCCCC1 (centres unmarked) [Compound 212] , what is its reported polydispersity?
Result: 0.048

Query: For CCCCCCCCC(CCCCCCCC)COC(=O)CCCCCN(CCO)CCN(CCCCCC(=O)OCC(CCCCCCCC)CCCCCCCC)CC1CCCC1 [Compound 35] , what is its reported polydispersity?
Result: 0.089

Query: For CCCCCCCCC(CCCCCCCC)COC(=O)CCCCCN(CCC)CCN(CCO)CCCCCC(=O)OCC(CCCCCCCC)CCCCCCCC [Compound 32] , what is its reported polydispersity?
Result: 0.04

Query: For CCCCCCCCCCCNC(=O)CCCCCN(CCN(CCO)CCCCC(COC(=O)CCCCCCC)COC(=O)CCCCCCC)C1CCC1 [Compound 188] , what is its reported polydispersity?
Result: 0.085

Query: For CCCCCCCCCOC(=O)CCCCCCCN1CCC(N(CCO)CCCCCCCC(=O)OC(CCCCCCCC)CCCCCCCC)CC1 [Compound 177] , what is its reported polydispersity?
Result: 0.059

Query: For CCCCCCCCC(CCCCCCCC)COC(=O)CCCCCN(CCO)CCN(CCCCCC(=O)OCC(CCCCCCCC)CCCCCCCC)C1CCC(C(F)(F)F)CC1 (centres unmarked) [Compound 29] , what is its reported polydispersity?
Result: 0.09

Query: For CCCCCCCCC(CCCCCCCC)COC(=O)CCCCCN(C)C1CCC(N(CCO)CCCCCC(=O)OCC(CCCCCCCC)CCCCCCCC)CC1 (centres unmarked) [Compound 64] , what is its reported polydispersity?
Result: 0.177

Query: For CCCCCCCCC(CCCCCCCC)COC(=O)CCCCCN(CCO)CCN(CCCCCC(=O)OCC(CCCCCCCC)CCCCCCCC)Cc1ccc(C)cc1 [Compound 39] , what is its reported polydispersity?
Result: 0.034

Query: For CCCCCCCC(=O)OCC(CCCCN(CCO)CCCCN(CCCCC(COC(=O)CCCCCCC)COC(=O)CCCCCCC)C(C)C)COC(=O)CCCCCCC [Compound 189] , what is its reported polydispersity?
Result: 0.114

Query: For CCCCCCCCCC(=O)OCC(CCCCN(CCO)CCN(CCCCC(COC(=O)CCCCCCCCC)COC(=O)CCCCCCCCC)C1CCC1)COC(=O)CCCCCCCCC [Compound 167] , what is its reported polydispersity?
Result: 0.128

Query: For C/C=C/CN(CCCCCC(=O)OCC(CCCCCCCC)CCCCCCCC)CCN(CCO)CCCCCC(=O)OCC(CCCCCCCC)CCCCCCCC [Compound 41] , what is its reported polydispersity?
Result: 0.067

Query: For CCCCCCCCC(CCCCCCCC)CNC(=O)CCCCCN(CCO)CCN(CCCCCC(=O)OCC(CCCCCCCC)CCCCCCCC)C1CCCC1 [Compound 16] , what is its reported polydispersity?
Result: 0.035

Query: For CCCCCCCCC(CCCCCC)CC(=O)OCCCCCN(CCO)CCN(CCCCCN(C)C(=O)CC(CCCCCC)CCCCCCCC)C1CCCCCC1 (centres unmarked) [Compound 147] , what is its reported polydispersity?
Result: 0.058
